Attribution: patent US20040110718A1

[
  {
    "record-smiles": "Nc1ncnc2c1nc(NCCc1ccccc1)n2[C@H]1C[C@H](O)[C@@H](CO)O1",
    "melting point": "192 to 195 °C"
  },
  {
    "record-smiles": "Nc1ncnc2c1nc(NCc1ccccc1)n2[C@H]1C[C@H](O)[C@@H](CO)O1",
    "melting point": "132 to 134 °C"
  },
  {
    "record-smiles": "OC[C@H]1O[C@@H](n2cnc3c(N4CCCC4)nc(Cl)nc32)[C@H](O)[C@@H]1O",
    "melting point": "229 °C"
  },
  {
    "record-smiles": "Nc1ncnc2c1nc(N1CCCCC1)n2[C@@H]1O[C@H](CO)[C@@H](O)[C@H]1O",
    "melting point": "207 to 209 °C (dec.)"
  },
  {
    "record-smiles": "Cn1cccc1CCNc1nc2c(N)ncnc2n1[C@@H]1O[C@H](CO)[C@@H](O)[C@H]1O",
    "melting point": "225 to 228 °C"
  },
  {
    "record-smiles": "Nc1ncnc2c1nc(NCCCc1ccccc1)n2[C@H]1C[C@H](O)[C@@H](CO)O1",
    "melting point": "198 to 201 °C"
  },
  {
    "record-smiles": "CN(CCc1ccccc1)c1nc2c(N)ncnc2n1[C@@H]1O[C@H](CO)[C@@H](O)[C@H]1O",
    "melting point": "118 to 120 °C"
  },
  {
    "record-smiles": "Nc1ncnc2c1nc(N1CCOCC1)n2[C@@H]1O[C@H](CO)[C@@H](O)[C@H]1O",
    "melting point": "210 to 213 °C"
  },
  {
    "record-smiles": "O=c1ccn([C@@H]2O[C@H](CO)[C@@H](O)[C@H]2Br)c(=O)[nH]1",
    "melting point": "194 to 195 °C"
  },
  {
    "record-smiles": "Nc1ncnc2c1nc(NCc1cccnc1)n2[C@@H]1O[C@H](CO)[C@@H](O)[C@H]1O",
    "melting point": "235 to 237 °C (dec.)"
  },
  {
    "record-smiles": "Nc1ncnc2c1nc(NCCCCCCc1ccccc1)n2[C@@H]1O[C@H](CO)[C@@H](O)[C@H]1O",
    "melting point": "165 to 167 °C"
  },
  {
    "record-smiles": "Nc1ncnc2c1nc(NCCc1ccc(Cl)cc1Cl)n2[C@@H]1O[C@H](CO)[C@@H](O)[C@H]1O",
    "melting point": "164 to 168 °C (dec.)"
  },
  {
    "record-smiles": "Nc1ncnc2c1nc(NCCc1ccc(S(N)(=O)=O)cc1)n2[C@@H]1O[C@H](CO)[C@@H](O)[C@H]1O",
    "melting point": "157 to 163 °C (dec.)"
  },
  {
    "record-smiles": "OC[C@H]1O[C@@H](n2cnc3c(-c4ccccc4)ncnc32)[C@H](O)[C@@H]1O",
    "melting point": "224 to 225 °C"
  },
  {
    "record-smiles": "Nc1ncnc2c1nc(NCCCCc1ccccc1)n2[C@@H]1O[C@H](CO)[C@@H](O)[C@H]1O",
    "melting point": "190 °C"
  },
  {
    "record-smiles": "O=c1ccn([C@@H]2O[C@H](CO)[C@@H](O)[C@H]2Cl)c(=O)[nH]1",
    "melting point": "206 to 207 °C"
  },
  {
    "record-smiles": "OC[C@@H]1O[C@H](n2cnc3c(-n4cccc4)ncnc32)[C@@H](O)[C@H]1O",
    "melting point": "114 to 115 °C"
  },
  {
    "record-smiles": "Nc1nc(-c2ccccc2)c2ncn([C@@H]3O[C@H](CO)[C@@H](O)[C@H]3O)c2n1",
    "melting point": "187 to 190 °C"
  },
  {
    "record-smiles": "C=CCNc1nc2c(N)ncnc2n1[C@@H]1O[C@H](CO)[C@@H](O)[C@H]1O",
    "melting point": "234 to 237 °C (dec.)"
  },
  {
    "record-smiles": "OC[C@H]1O[C@@H](n2cnc3c(-c4ccsc4)ncnc32)[C@H](O)[C@@H]1O",
    "melting point": "166 to 167 °C (dec.)"
  },
  {
    "record-smiles": "OC[C@@H]1C[C@@H](O)[C@H](n2cnc3c(-n4cccc4)ncnc32)O1",
    "melting point": "175 to 176 °C"
  },
  {
    "record-smiles": "Nc1ncnc2c1nc(NCCC1CCCCC1)n2[C@@H]1O[C@H](CO)[C@@H](O)[C@H]1O",
    "melting point": "203 to 205 °C"
  },
  {
    "record-smiles": "Nc1ncnc2c1nc(NCCCCc1ccccc1)n2[C@H]1C[C@H](O)[C@@H](CO)O1",
    "melting point": "168 to 171 °C"
  },
  {
    "record-smiles": "Nc1ncnc2c1nc(N1CCN(c3ccccc3)CC1)n2[C@@H]1O[C@H](CO)[C@@H](O)[C@H]1O",
    "melting point": "220 to 223 °C (dec.)"
  },
  {
    "record-smiles": "Nc1ncnc2c1nc(NCCCCCCc1ccccc1)n2[C@H]1C[C@H](O)[C@@H](CO)O1",
    "melting point": "159 to 161 °C"
  },
  {
    "record-smiles": "Nc1ncnc2c1nc(N1CCc3ccccc3C1)n2[C@@H]1O[C@H](CO)[C@@H](O)[C@H]1O",
    "melting point": "145 to 150 °C (dec.)"
  },
  {
    "record-smiles": "OC[C@H]1O[C@@H](n2cnc3c(-n4cccc4)ncnc32)[C@@H](O)[C@@H]1O",
    "melting point": "212 to 213 °C"
  },
  {
    "record-smiles": "Nc1ncnc2c1nc(NCCc1c[nH]cn1)n2[C@@H]1O[C@H](CO)[C@@H](O)[C@H]1O",
    "melting point": "148 to 156 °C (dec.)"
  },
  {
    "record-smiles": "Nc1ncnc2c1nc(NCCc1ccc(Cl)cc1)n2[C@@H]1O[C@H](CO)[C@@H](O)[C@H]1O",
    "melting point": "155 to 158 °C (dec.)"
  },
  {
    "record-smiles": "Nc1ncnc2c1nc(NCCc1ccc(O)cc1)n2[C@@H]1O[C@H](CO)[C@@H](O)[C@H]1O",
    "melting point": "262 to 265 °C (dec.)"
  },
  {
    "record-smiles": "Nc1ncnc2c1nc(NCCCc1ccccc1)n2[C@@H]1O[C@H](CO)[C@@H](O)[C@H]1O",
    "melting point": "180 to 183 °C"
  },
  {
    "record-smiles": "Nc1ncnc2c1nc(NCCN1CCOCC1)n2[C@@H]1O[C@H](CO)[C@@H](O)[C@H]1O",
    "melting point": "210 to 215 °C"
  },
  {
    "record-smiles": "Nc1ncnc2c1nc(NCc1cccc3ccccc13)n2[C@@H]1O[C@H](CO)[C@@H](O)[C@H]1O",
    "melting point": "140 to 150 °C"
  },
  {
    "record-smiles": "CCc1cn([C@@H]2O[C@H](CO)[C@@H](O)[C@H]2O)c(=O)[nH]c1=O",
    "melting point": "180 to 181 °C"
  },
  {
    "record-smiles": "Cc1ccc(CCNc2nc3c(N)ncnc3n2[C@@H]2O[C@H](CO)[C@@H](O)[C@H]2O)cc1",
    "melting point": "117 to 124 °C (dec.)"
  }
]
